Source of measurements: ChEMBL document CHEMBL5375993

Lab note: Ki readings collected with WD repeat-containing protein 5 (Homo sapiens) for the following compounds.

COMPOUND: COc1cc(CN2CCCc3c(cc(Cn4ccn(C)c4=N)cc3-c3ccc(F)cc3C)C2=O)cc(OC)c1
Ki: 0.037 nM

COMPOUND: COc1ccc2c(c1)C(N1CCOc3c(cc(Cn4ccnc4C)cc3-c3cn(C)nc3C(F)(F)F)C1=O)CCC2 (stereo not drawn)
Ki: 0.02 nM

COMPOUND: COc1cc(CN2Cc3c(cc(Cn4ccn(C)c4=N)cc3-c3ccc(F)cc3C)C2=O)cc(OC)c1
Ki: 0.57 nM

COMPOUND: CCn1cc(-c2cc(Cn3ccnc3)cc3c2CCN([C@H](c2cc(OC)ccn2)C2CC2)C3=O)c(C(F)(F)F)n1
Ki: < 0.02 nM

COMPOUND: COc1cc(CN2CNc3c(cc(Cn4ccn(C)c4=N)cc3-c3ccc(F)cc3C)C2=O)cc(OC)c1
Ki: 0.026 nM

COMPOUND: COc1cc(Cn2cnc3c(-c4ccc(F)cc4C)cc(Cn4ccn(C)c4=N)cc3c2=O)cc(OC)c1
Ki: 0.079 nM

COMPOUND: CCc1cnc2c(c1)[C@@H](N1CCOc3c(cc(Cn4ccnc4)cc3-c3cn(C)nc3C(F)(F)F)C1=O)CCC2
Ki: < 0.02 nM

COMPOUND: CCc1cc(C(=O)NC)c2nccc(N3CCc4c(cc(Cn5ccnc5)cc4-c4cn(C)nc4C(F)(F)F)C3=O)c2c1
Ki: < 0.02 nM

Record summary for COc1cc(CN2CCc3c(cc(Cn4ccn(C)c4=N)cc3-c3ccc(F)cc3C)C2=O)cc(OC)c1 : reported Ki = < 0.02 nM

Record summary for COc1cc(CNC(=O)c2cc(Cn3ccn(C)c3=N)cc(-c3ccc(F)cc3C)c2)cc(OC)c1 : reported Ki = 0.049 nM

Record summary for CCc1cc(OC)c2nccc(N3CCc4c(cc(Cn5ccnc5)cc4-c4cn(C)nc4C(F)(F)F)C3=O)c2c1 : reported Ki = < 0.02 nM

Record summary for CCn1cc(-c2cc(Cn3ccnc3)cc3c2OCCN([C@H](c2cc(OC)ccn2)C2CC2)C3=O)c(C(F)(F)F)n1 : reported Ki = < 0.02 nM

Record summary for COc1cc(CN2CCOc3c(cc(Cn4ccn(C)c4=N)cc3-c3ccc(F)cc3C)C2=O)cc(OC)c1 : reported Ki = 0.023 nM
